B1: Nuclear receptor subfamily 1 group D member 2, residues 103 to 171; numbered along this chain, Q14995 (parent)
chain: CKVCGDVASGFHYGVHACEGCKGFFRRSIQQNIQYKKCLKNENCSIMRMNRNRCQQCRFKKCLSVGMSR

# Variants of: B1
# Assay: abundance fitness (aPCA) (normalised: wild type 0, dead -1); higher = more abundant; growth selection in yeast, the domain comes from the species named
# Condition Parameters: Homo sapiens
# thresholds on abundance fitness define classes: lo: < -0.4; med: ≥ -0.4 and < 0.01; hi: ≥ 0.01

Record excerpt, results attached:
Polymer Sequence | Category
CKVCGDVASGFHYGVHACEGCKGFFRRSIQQNIQYKKCLKNENCSIMRMERNRCQQCRFKKCLSVGMSR [N50E] | med
CKVCGDVASGFHYGVHACEGCKGFFRRSIQVNIQYKKCLKNENCSIMRMNRNRCQQCRFKKCLSVGMSR [Q31V] | lo
CKVCGDVASGFHYGVHACEGCKGFFRRSIQQNIQYKKGLKNENCSIMRMNRNRCQQCRFKKCLSVGMSR [C38G] | lo
CKVCGDVASGFHYGVHACEGCKGFFRRSIQQNIQYKKCLKNENCSIMRMNRNRCQQCRFKKCLSVGMST [R69T] | hi
CKVCGDVASGFHYGVHACEGCKGFFRRSIQQNIQYKKCLKNENCTIMRMNRNRCQQCRFKKCLSVGMSR [S45T] | med

input: Into which category would you place CKVCGDVASGFHYGVHACEGCKGFFRRSIQQNIQYKKCLKNENCSIMRMNRNRCQNCRFKKCLSVGMSR [Q56N] ?
output: hi

input: Into which category would you place CKVCGDVASGFHYGVHACEGCKGFFRRSIQQNIQYKKCLKNENCSIMRMNRNRCQQCRFMKCLSVGMSR [K60M] ?
output: med

input: Into which category would you place CKVCGDVASGFHYGVHACEGCKGFFRRSIQSNIQYKKCLKNENCSIMRMNRNRCQQCRFKKCLSVGMSR [Q31S] ?
output: med

input: Into which category would you place CKVCGDVASGFHYGVHACEGCKGFFRRSIQQNIQYKKCLKNEKCSIMRMNRNRCQQCRFKKCLSVGMSR [N43K] ?
output: med

input: Into which category would you place CKVCGDVASGFHYGVHACEGCKGFFRRSIQQNIQYKKCNKNENCSIMRMNRNRCQQCRFKKCLSVGMSR [L39N] ?
output: hi
